Method Notes: yeast display, Sf9 membrane polyspecificity reagent, FACS + sequencing; frameworks hold sequencing errors
Attribute Measured: polyreactivity (PSR sort gate)

INSERT INTO assay_data (item_sequence, result) VALUES
  ('QVQLVESGGGLVQAGGSLRLSCAASGRIFAPYAMGWYRQAPGKERELVAAIDGSGGSTYYADSVKGRFTISRDNAKNTVYLQMNSLKPEDTAVYYCATRGSYRSQRWYGYWGQGTQVTVSS', 'high polyreactivity'),
  ('QVQLVESGGGLVQAGGSLRLSCAASGRTFYSNAMGWYRQAPGKERELVAAIRRSRGRTYYADSVKGRFTISRDIAKNTVYLQMNSLKPEDTAVYYCATARYRAEMGYWGQGTQVTVSS', 'high polyreactivity');

* * *

Method Notes: yeast display, Sf9 membrane polyspecificity reagent, FACS + sequencing; frameworks hold sequencing errors
Attribute Measured: polyreactivity (PSR sort gate)

INSERT INTO assay_data (item_sequence, result) VALUES
  ('QLQLVESGGGLVQAGGSLRLSSAPSGITLQYYAMGWYRQAPGKERELVAAISYRGGRTYYADSVKGRFTISRDNAKNTVYLQMNSLKPEDTAGYYCARRSSKPSSIQYYYWGQGTQVTVSS', 'high polyreactivity'),
  ('QVQLVESGGGLVQAGGSLRLSCAASGFIFTYYAMGWYRQAPGKERELVAAITVRGGSTYYADSVKGRFTISRDNAKNTVYLQMNSLKPEDTGVYYCNTVHGLWRRYNYWGQGTQVTVSS', 'high polyreactivity');

* * *

Method Notes: yeast display, Sf9 membrane polyspecificity reagent, FACS + sequencing; frameworks hold sequencing errors
Attribute Measured: polyreactivity (PSR sort gate)

INSERT INTO results (item_sequence, attribute_measured, result) VALUES
  ('QVQLVESGGGLVQAGGSLRLICAASGSTFGVNAMGWYRQAPGKERELVAVITRSGGSTYYADSVKGRFTISRDNAKNTVYLEMNSLKPEDTAVYYCAKSGVVDWGQGTQVTVSS', 'polyreactivity (PSR sort gate)', 'low polyreactivity'),
  ('QVQLVESGGGLVQAGGSLRLSCAASGSIFRYYAMGWYRQAPGKERELVAAINSRGGTTYYADSVKGRFTISRDNAKNTVYLQMNSLKPEDTAVYYCAAGYPPLHTSVQQTAHYGLDYWGQGTQVTVSS', 'polyreactivity (PSR sort gate)', 'high polyreactivity'),
  ('QVQIEESGGGLVQAGGSLRLSCAASGRTFLHKDMGWYRPAPGKERELVAAINVSDGSTYYADSVKGRFTISRDNAKNTVYLQMNSLKPEDTAVYYCAKASYIIFRFEYRSGYDYWGQGTQVTVSS', 'polyreactivity (PSR sort gate)', 'low polyreactivity'),
  ('QVLLQESGGGLVQAGGSLRLSCAASGNIFSAGGMGWYRQAPVNERELVAGIGTGTSTNYADSVKGRFTISRDNSKNTVYLQMNSMKPEDTAVYYCAAAYYSGLSHWYWGQGTQVTVSS', 'polyreactivity (PSR sort gate)', 'low polyreactivity'),
  ('QVQLVESGGGLVHAGGSLRLSCAASGSIFEGNGMGWYRQAPGKERELVAAITFRSGSTYNADSVKGRFTISRDNEKNTVYLPMNSLKPEDTAVYYCAADEYYQVSAYDYWGQGTQVTVSS', 'polyreactivity (PSR sort gate)', 'low polyreactivity'),
  ('QVQLVESGGGLVQAGGSLRLSCAASGRIFGDYALGWYRQAPGKERELVAAISWSDGSTYYADSVKGRFTISRDKAKNTVYLQMNSLKPEDTAVYYCAAYGWGYSYVDVVVSDFYYWGQGTQVTVSS', 'polyreactivity (PSR sort gate)', 'low polyreactivity'),
  ('QVQLVESGGGLVQAGCSLRLICAASGFIFPTNAMGWYRQAPGKERELVARISYGGGDTHYADSVKGRFTISRANAKTTVYLQMNSLKPEDTAVHYCAVKDGQDDYWGQGTQVTVSS', 'polyreactivity (PSR sort gate)', 'low polyreactivity'),
  ('QVQLVESGGGLVQAGGSLRLSCAASGSTFNDNAMGWYRQAPGKERELVAGISYSGGSTYYADSVKGRFTISRDNAKNTVYLQMNSLKPEDTAVYYCNADVTGLSQFGYWGQGTQVTVSS', 'polyreactivity (PSR sort gate)', 'low polyreactivity'),
  ('QDQLVESGGGLVHAGGSLRLSCAASGSTFDRYALGWYRQAPVKERELVATITRSGSTNYADSVKGRFTISRDNAKNTVYLQMNSLKTEDTAVYYCAAYDRITRYDYWGQGTQVTVSS', 'polyreactivity (PSR sort gate)', 'high polyreactivity'),
  ('QVQLVESGGGLVQAGGSLRLSCAASGIIFVGNAMGWYRQAPGKERELVASINSGGSTYYADSVKGRFTISRDNAKNTVYLPMNSLKPEDTAVYYCAVEEARYYYDDYDYWGQGTQVTVSS', 'polyreactivity (PSR sort gate)', 'low polyreactivity'),
  ('QVQLVESGGGLVQAGGSLRLSCAASGRTLAFNAMGWYRQAPGKERELVAVIRNGTSTNYADSVKGRFTISRDNAKNTVYLQMNSLKPEDTAVYYCNVPYYLPSYLSGYDYWGQGTQVTVSS', 'polyreactivity (PSR sort gate)', 'low polyreactivity'),
  ('QVQLVESGGGLVQAGGSLRLSCAASGGTFIANAMGWYRPAPGKERELVAAITSRGGNTYYADSVKGRFTISRDNAKNTVYLQMNSLKPEDTSVYYCAARNDKRRQYYVGQSAFDFWGQGTQVTVSS', 'polyreactivity (PSR sort gate)', 'low polyreactivity'),
  ('QVQLVESGGGLVQAGGSLRLICAASGSTFVRNAMGWYRQSPGKEREFVAAIRRSGGSTYYADSVKGRFTISRDNPKNTVYLQINSLKPEDTAVYDCAARNYYTYDYWGQGTQVTVSS', 'polyreactivity (PSR sort gate)', 'high polyreactivity'),
  ('QLQLVESGGGLVQAGGSLRLSCAASGRIVKYDMGWYRQAPGKERELVAAISGSGGTTNYADSVKGRFTISRDNAKNTVYLKLNSLKPEETAVYYCAASRPRPPSSRRMDYWGQGTQVTVSS', 'polyreactivity (PSR sort gate)', 'high polyreactivity'),
  ('QVQLVESGGGLVQAGGSLRLSCAASGSIFTYYAMGWYRQAPGKEREFVAAISRRGGSTYYADSVKGRFTISRDNAKNTVYLQMNSLKPEDTAVYYCAADRWTRTLVKVIGRYYYWGQGTQVTVSS', 'polyreactivity (PSR sort gate)', 'high polyreactivity'),
  ('QVQLVESGGGLVQAGGCLRLSCAASGRTFYRNVMGWYRQAPGKEREWVGAISSRGGSTYYADSVKGRFTISRDNAKNTVYLQMNSLKPEDTAVYYCAAEGTYYGSDYWGQGTQVTVSS', 'polyreactivity (PSR sort gate)', 'high polyreactivity'),
  ('QVQRVESGGGLVQAGGSLRLSCAASGSIFYGNAMGWYRQAPGKERELVAAISWSGGSTYYADSVKGRFTISRDNAKNTVYLQMNSLKPEDTAVYYCATVADEPRAYSGYEESDYWGQGTQVTVSS', 'polyreactivity (PSR sort gate)', 'low polyreactivity'),
  ('QVQLLESGGGLVPSGGSLRLSCAASGLTLYTYAMGWYRQAPGKERELVAAISKNGGRTYYADSVKGRFTISRDNAKITVYLQMNSLKPEDTAVYYCADRARVGTVTFDYWGQGTQVTVSS', 'polyreactivity (PSR sort gate)', 'low polyreactivity'),
  ('QVQLVESGGGLVQAGGSLRLSCAASGSIFIQYAMGWYSQAPGKERELVAAINSSGGRTYYADSVKGRFTISRDNAKNTVYLQMNSLKPEDTAVYYCAADPGSSFDWGQGTQVTVSS', 'polyreactivity (PSR sort gate)', 'low polyreactivity'),
  ('QVQLVESGGGLVQAGGSLRLICAASGSIFFTYVMGWYRQSPGKERELVAAISSDDNTNYADSVKGRFTSSRDNAKNTVYLQMHSLKPEDTAVYYCNADTTRYPYYDYGYYDYDYWGQGTQVTVSS', 'polyreactivity (PSR sort gate)', 'low polyreactivity'),
  ('QVQLVESGGGLVQAGGSIRLSCAASGFTITHYAMGWYRQAPGKERELVAAISASGGSTYYADSVKGRFTISRDNAKYTVYVQMNSLKPEDTAVYYCAATWDYRRGRYPYDYWGQGTQVTVSS', 'polyreactivity (PSR sort gate)', 'high polyreactivity');
